As shown below, each of these binders has a reported pKd value.
# EXPERIMENTAL TARGET: Human rhB7-H3 (human) (UniProt Q5ZPR3)
# PROCEDURE SUMMARY: SPR (Biacore 8K/T200), Fab-SASA captured on immobilised albumin, B7-H3 as analyte, 1:1 model
Field pKd (float): negative decimal logarithm of the concentration in molar.

binder="Chimeric Fab-SASA (Fab, V domains shown) VH: EVQLQQSGPELVKPGASVKMSCKASGYTFTSYVMHWVRQSPGQGLEGIGYINSYSDGTKYNEKFKGKATLTSDKSSSTAYMELSGLTSEDSAVYYCARWGGLGNGAMDYWGQGTSVTVSS VL: QIVLTQSPAIMSASPGEKVTMTCSVSSSVNYMHWYQQKSGTSPKRWIYDTSKLASGVPARFSASGSGTSYSLTISSMEAEDAATYYCQQWTSNPLTFGAGTKLELKR" meas_value=9.30

# pKd lookup, item AHF15938 Fab-SASA (Fab, V domains shown) VH: QVQLVQSGAEVKKPGASVKVSCKASGYTFTSYVMHWVRQAPGQRLEWMGYINSYSDGTKYNEKFKGRATITRDTSASTAYMELSSLRSEDTAVYYCARWGGLGNGAMDYWGQGTLVTVSS VL: EIVLTQSPATLSLSPGERATLSCSVSSSVNYMHWYQQKPGQAPRRLIYDTSKLASGIPARFSGSGSGTDYTLTISSLEPEDFAVYYCQQWTSNPLTFGQGTKLEIK
11.09

# repeat for Grafted Fab-SASA (Fab, V domains shown) VH: QVQLVQSGAEVKKPGASVKVSCKASGYTFTSYVMHWVRQAPGQRLEWMGYINSYSDGTKYNEKFKGRVTITRDTSASTAYMELSSLRSEDTAVYYCARWGGLGNGAMDYWGQGTLVTVSS VL: EIVLTQSPATLSLSPGERATLSCSVSSSVNYMHWYQQKPGQAPRLLIYDTSKLASGIPARFSGSGSGTDFTLTISSLEPEDFAVYYCQQWTSNPLTFGQGTKLEIKR
7.55

# repeat for AHF15948 Fab-SASA (Fab, V domains shown) VH: QVQLVQSGAEVKKPGASVKVSCKASGYTFTSYVMHWVRQAPGQRLEWMGYINSYSDGTKYNEKFKGRVTITRDTSASTAYMELSSLRSEDTAVYYCARWGGLGNGAMDYWGQGTLVTVSS VL: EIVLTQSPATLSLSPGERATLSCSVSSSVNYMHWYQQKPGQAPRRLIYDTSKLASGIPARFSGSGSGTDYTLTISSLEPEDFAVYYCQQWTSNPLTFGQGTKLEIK
9.44

Values compiled from patent US20260224701A1.
